Molecular target: P-selectin (Homo sapiens)
Sequence (P16109 whole entry): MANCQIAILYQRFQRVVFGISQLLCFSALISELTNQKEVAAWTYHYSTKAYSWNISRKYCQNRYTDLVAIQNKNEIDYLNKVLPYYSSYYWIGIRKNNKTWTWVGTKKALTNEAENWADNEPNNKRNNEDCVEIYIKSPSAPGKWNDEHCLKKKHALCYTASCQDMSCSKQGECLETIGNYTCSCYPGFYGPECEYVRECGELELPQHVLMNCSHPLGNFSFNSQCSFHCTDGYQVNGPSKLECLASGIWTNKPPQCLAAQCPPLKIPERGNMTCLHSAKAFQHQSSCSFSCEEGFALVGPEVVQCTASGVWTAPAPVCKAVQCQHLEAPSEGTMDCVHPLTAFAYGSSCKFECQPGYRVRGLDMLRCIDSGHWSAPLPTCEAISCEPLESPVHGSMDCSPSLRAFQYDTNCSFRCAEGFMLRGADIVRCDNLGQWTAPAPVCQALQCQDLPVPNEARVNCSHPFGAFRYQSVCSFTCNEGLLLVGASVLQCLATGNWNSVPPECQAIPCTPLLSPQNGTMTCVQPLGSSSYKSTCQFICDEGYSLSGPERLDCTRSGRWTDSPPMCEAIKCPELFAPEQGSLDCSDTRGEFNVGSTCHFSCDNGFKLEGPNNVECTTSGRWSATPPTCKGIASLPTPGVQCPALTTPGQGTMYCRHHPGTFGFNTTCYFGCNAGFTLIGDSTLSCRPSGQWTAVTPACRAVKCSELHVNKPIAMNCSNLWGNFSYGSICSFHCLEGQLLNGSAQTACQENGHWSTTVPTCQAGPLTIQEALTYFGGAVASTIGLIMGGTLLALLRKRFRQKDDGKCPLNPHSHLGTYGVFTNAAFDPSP
Please find below IC50 measurements for P-selectin (Homo sapiens), combined from several publications.
Give bare numbers, in µM.

Recorded results for 3 compounds are shown here.
- compound: "O=C(O)c1c(O)c(Cc2ccccc2Cl)nc2c3c(ccc12)CCCC3"
  endpoint.value: 123
- compound: "O=C(O)Cc1ccc(-c2ccccc2NC(=O)c2cccc(-c3cc(O)c(O)c(O)c3)c2)s1"
  endpoint.value: 21.8
- compound: "COc1ccc(C2(C(=O)O)CCCCC2)cc1C1OCC(O)C(O)C1O (centres undefined)"
  endpoint.value: 8

Hey, can you go through the list below and give me IC50 for every item?
1. O=C(O)Cc1ccc(-c2cccc(NC(=O)c3cccc(-c4ccc(O)c(O)c4O)c3)c2)s1
2. O=C(O)Cc1ccc(-c2ccccc2NC(=O)c2ccc(-c3ccc(O)c(O)c3O)cc2)s1
3. C[C@@]12CCC[C@@](C)(C(=O)O)C1CC[C@@]13C[C@@H](O[C@H]4O[C@H](CO)[C@@H](O)[C@@H](O)[C@@H]4O)[C@@](C)(CCC12)C3 (some centres undefined)
4. O=C(O)Cc1ccc(-c2ccccc2NC(=O)Cc2cccc(-c3ccc(O)c(O)c3O)c2)s1
5. O=C(O)[C@]1(OCc2ccc(-c3ccccc3C(F)(F)F)cc2)C[C@@H](O)[C@@H](O)[C@H](O)C1
6. O=C(O)c1c(O)c(Cc2c[nH]c3ccc(Cl)cc23)nc2c(C(F)(F)F)cccc12
7. O=C(O)c1c(O)c(Cc2ccc(Cl)cc2)nc2c(Cl)cccc12

0.74
1.1
60
3.6
10000
250
715

Hey, can you go through the list below and give me IC50 for every item?
1. O=C(O)Cc1ccc(-c2ccccc2NC(=O)CCc2ccc(O)c(O)c2O)s1
2. CC(=O)Oc1c(Cc2ccc(Cl)cc2)nc2c3c(ccc2c1C(=O)O)CCCC3
3. O=C(Oc1c(Cc2ccc(Cl)cc2)nc2c3c(ccc2c1C(=O)O)CCCC3)c1ccccc1
4. O=C(O)c1c(O)c(Cc2ccc(Cl)cc2)nc2ccc(Br)cc12
5. O=C(O)Cc1ccc(-c2ccccc2NC(=O)/C=C/c2cc(O)c(O)c(O)c2)s1
6. CCCCCCCCCCCCCCCCNC(=O)/C=C/c1ccc(-c2[nH]c(-c3ccc(C4=NOC(C(=O)O)C4)cc3)nc2-c2ccc(/C=C/C(=O)O)cc2)cc1 (centres undefined)

[28.6, 545, 190, 650, 19.5, 0.3]

Look up IC50 for this compound: `Cc1cc(O)c(O)c(O)c1`
31.8
